Here, each record is paired with measured GI50 data.
- Test system: HCC 2998
- MEASUREMENT DESCRIPTION: NCI tumour cell line growth inhibition, 48 h
Active and inactive are the calls of the source. Rule as the data show it: active = GI50 up to about 1.1 µM and inactive = higher.

Known GI50 results, listed for orientation:
COMPOUND | GI50
Cc1nc(C(N)=S)sc1C(=O)CC(=O)C(=O)Nc1c(C(C)C)cccc1C(C)C | 43.3 µM (inactive)
CC(C)CNC(=O)Cn1c(-c2ccccc2)cc2ccccc21 | > 100 µM (inactive)
CCCc1cn2c(/C=N/NC(=N)N)c(-c3ccc([N+](=O)[O-])cc3)nc2s1 | 0.578 µM (active)
COc1cc(/C=C2\C[C@H]3[C@@H]4CC=C5C[C@@H](N6CCCC6)CC[C@]5(C)[C@H]4CC[C@]3(C)[C@H]2OC(C)=O)cc(OC)c1OC | 2.38 µM (inactive)
CCN(CC)c1ccc(/C=C/C2=NN(c3cccc(S(=O)(=O)O)c3)C3(C2)SCC(=O)N3c2nc3ccccc3s2)cc1 (stereo unspecified) | 35.2 µM (inactive)

# input compound: O=C1Nc2cc([N+](=O)[O-])c(Br)cc2C1=O ; wanted: its GI50 > 10 µM (inactive)

# input compound: O=C1C(CN2CCCC2)CCC1CN1CCCC1 (stereo unspecified) ; wanted: its GI50 > 100 µM (inactive)

# input compound: O=c1c(C(c2ccccc2)c2c(O)oc3cc(O)ccc3c2=O)c(O)oc2cc(O)ccc12 ; wanted: its GI50 > 100 µM (inactive)

# input compound: COC(=O)[C@@H]1C(=O)O[C@@H](c2ccc(OC)c(OC)c2OC)[C@@H]1C(=O)OC.COC(=O)[C@H]1C(=O)O[C@@H](c2ccc(OC)c(OC)c2OC)[C@@H]1C(=O)OC ; wanted: its GI50 > 100 µM (inactive)

# input compound: CC(=O)SC(C[N+](=O)[O-])c1ccccc1 (stereo unspecified) ; wanted: its GI50 4.75 µM (inactive)

# input compound: C=C1CC[C@H](O)C(C)(C)[C@@H]1CC/C(C)=C/CC/C=C(\C)CC/C=C(\C)CCC=C(C)C ; wanted: its GI50 76.6 µM (inactive)

# input compound: COC(=O)/C=C/CCC#Cc1ccccc1C#CCC/C=C/C(=O)OC ; wanted: its GI50 50.1 µM (inactive)

# input compound: CN(C)/C=N\c1ccn(CCO)c(=O)n1 ; wanted: its GI50 > 100 µM (inactive)

# input compound: O=C(/C=C/c1cc(F)ccc1F)OCCc1ccccc1 ; wanted: its GI50 > 100 µM (inactive)

# input compound: O=C(CCCNc1nc(-c2ccccc2)cs1)c1cccs1 ; wanted: its GI50 > 100 µM (inactive)

# input compound: O=C(Nc1cccc(Cl)c1)C(=O)C(C(=O)c1ccc2ccccc2c1)C1OC(=O)c2ccccc21 (stereo unspecified) ; wanted: its GI50 10.2 µM (inactive)

# input compound: Cn1c(=O)c2[nH]c(Nc3cccc(Cl)c3)nc2n(C)c1=O ; wanted: its GI50 4.27 µM (inactive)

* * *

Here, each record is paired with measured GI50 data.
- Test system: SF-539
- MEASUREMENT DESCRIPTION: NCI tumour cell line growth inhibition, 48 h
Active and inactive are the calls of the source. No stated cut-off is given here; in the data, active = GI50 up to about 1.1 µM and inactive = higher.

# input compound: CCS[C@H]1NC(=O)C1[C@H](C)O[Si](C)(C)C(C)(C)C (some centres not stated) ; wanted: its GI50 > 100 µM (inactive)

# input compound: CC(=O)c1cc2c(s1)C(=O)c1ccccc1C2=O ; wanted: its GI50 1.44 µM (inactive)

# input compound: Cc1ccc(S(=O)(=O)N2CCCCC2CCO)cc1 (configuration not stated) ; wanted: its GI50 > 100 µM (inactive)

# input compound: N#[N+]c1ccccc1Sc1ccc(Cl)cc1 ; wanted: its GI50 > 100 µM (inactive)
